Target: T1, ECF38_1322
T1 chain: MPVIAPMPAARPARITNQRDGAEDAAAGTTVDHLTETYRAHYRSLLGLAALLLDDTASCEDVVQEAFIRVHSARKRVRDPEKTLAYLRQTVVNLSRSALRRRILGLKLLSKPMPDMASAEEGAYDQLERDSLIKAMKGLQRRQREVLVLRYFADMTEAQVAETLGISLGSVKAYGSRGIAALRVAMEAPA
Each record gets a class by fold repression: group 1 = under 2, group 2 = from 2 up to 3, group 3 = 3 and over

Recorded results for 5 binders are shown here.
# Binder, Category Label
rows = [
    ("AS14_1324 (protein) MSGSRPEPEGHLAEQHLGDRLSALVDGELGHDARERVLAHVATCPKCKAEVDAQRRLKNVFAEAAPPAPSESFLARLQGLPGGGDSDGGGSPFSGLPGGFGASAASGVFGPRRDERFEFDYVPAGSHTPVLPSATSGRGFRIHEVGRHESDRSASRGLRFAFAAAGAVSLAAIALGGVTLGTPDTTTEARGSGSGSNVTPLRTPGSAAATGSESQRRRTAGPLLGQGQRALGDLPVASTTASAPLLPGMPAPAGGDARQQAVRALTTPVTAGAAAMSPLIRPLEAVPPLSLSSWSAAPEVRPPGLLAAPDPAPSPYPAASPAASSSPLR", "group 2"),
    ("AS01_3473 (protein) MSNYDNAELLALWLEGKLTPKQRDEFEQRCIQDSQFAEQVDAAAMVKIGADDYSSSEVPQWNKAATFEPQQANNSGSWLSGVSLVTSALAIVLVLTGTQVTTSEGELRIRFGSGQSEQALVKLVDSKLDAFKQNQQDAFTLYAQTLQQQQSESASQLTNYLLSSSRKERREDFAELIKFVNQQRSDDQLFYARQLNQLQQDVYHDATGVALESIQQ", "group 1"),
    ("AS25_1645 (protein) MNESFSQRQTDGDRRRGGDLEMKKNHTSHQHHTDSETPMGHNFEQFQRLSAYFDGEATPAERKEIQHLLDTDPQVKQQYQQLRQLKQALQLLPIPTSISAQYLGQRVLARLRRSQLRTLSLWGSGAIAALFVAGVMGQMPRLNFDRFAKNDPDQQPTAALVETSPQGEEALVVALNRPVLQIPKLATTESP", "group 3"),
    ("AS16_3622 (protein) MMKTDELISLLATAEGPVDRHALARRLGLALLAGLLGALLLTVALYGVRSDLAEVARTPLFWAKVALPTSLALLGLWLTQRLARPGVRGGALWGLLGVPLLLVWLGAAISLFGAPPEARADLIFGRTWRTCALNITLLSTPVFIAVFWALRGLAPTRLRQAGAAGGLLAGSTATLVYCLHCPEMGVPFWGLWYLLGMLVPTLLGAVLGPRLLRW", "group 2"),
    ("AS35_3582 (protein) MNPQKHSASVAEEQMLAHFRAHAPQQPAPALDQAILAAARRQAAHVEPARSWWRRWLEASRRPRWQAAFASLLGVALVLGLVSHNVLDDAERQARPEVAFSDVPLRDGVAGAAAAKRAMRAPAAPAPLSGEMSEPPALLASYASSGEAPQLMAEAAPPAPAALADRPPAQAAQQAKVQAALAGDFVAQARGKAVAVKPEVLDEALGAVLALREQGKTEQAATQLAELQKRFPGENLVERLERLATIAASARKRP", "group 3"),
]

INPUT: Please report the category associated with AS20_992 (protein) MTPERFVHLADAYGADLQRWPSAERAAAQALLDCGDAQAVAALRQAHWLDSQLDRYQVPAPSPALAQRIIAAAQQPGAPFWSRYAGWLASLGWVGVGLTGVAAGMLAVALSLPLSTSAEALPSVFDQSDAEFVLSINAEEAEQ , nothing else.
OUTPUT: group 1

INPUT: Form: Item = AS04_1609 (protein) MNRTTEQRNAEVMKTIGLLDQMPRVEVDHLFRVRLMQRIEAMEVKKTSWSALPGGAFNPRLAFMALLLMLNIASALMLFMHGTPQATGSSGAIAESLTEDYGGPALSYYDDQTTIDR ; Class = ?
OUTPUT: group 3

INPUT: Entry AS37_2513 (protein) MSSAPATKEEVDFALKVRRALDERAASLPDATTDRLAAARRAALARKKPDAAIVLVPALAGSAGTLELRPPGEPRKSLARRLARAWPLALLLAGLIGIAYWEDMQRTAELADIDAAMLSDNLPLTAYLDHGFNAYLSHTH belongs to which category?
OUTPUT: group 2

INPUT: Lab note: sort AS27_4265 (protein) MTGHPDVAEIADLAEGLLPTTRTTEVRQHLESCELCADVYASLTEIQGLLGTLPAPAPMPDDVAARIDAALAAEPPLGIADGTRVSRETSTPADRPAGHARPSSTGPGRKDRRRGGRRRIAVLGAVAAAAAIGIGSVVVSSLTEDSSSGNTAREQQTAIADTFSEGRLKDRVTNLVADGSAENGSRTPRSFGMESENGGETAENHVFKQPTVPECIRKGIGRDDAVIATEPGVYKGREALLVVLPDATNDTQVTAYIVETACVDQPAVGKAKILLEHSYARS into the matching fold repression band.
OUTPUT: group 1

INPUT: Which class is correct for the following binder? AS33_423 (protein) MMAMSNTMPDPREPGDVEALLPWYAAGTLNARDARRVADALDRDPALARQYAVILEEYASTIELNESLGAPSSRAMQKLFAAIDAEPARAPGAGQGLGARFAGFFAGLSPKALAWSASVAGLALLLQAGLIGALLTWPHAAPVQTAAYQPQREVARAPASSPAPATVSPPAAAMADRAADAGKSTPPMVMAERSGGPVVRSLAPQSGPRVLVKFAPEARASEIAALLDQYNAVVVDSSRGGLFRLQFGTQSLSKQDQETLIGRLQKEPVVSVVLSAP
OUTPUT: group 3

INPUT: Just checking, what class would you give AS15_524 (protein) MNFGVEDMIEHVPMEDKRKGAAALDEARLRQQAIGVKLRQMFDEVVNEPVPDEFLAILRKAERPAGGE here?
OUTPUT: group 3

INPUT: Entry AS11_987 (protein) MNKHPDNNLLEAYASGSIDAVSGLVVATHLETCSKCRAYVNQVEASQANTVSESPSEYSPEFDDMLNDIINAEPVNDNVVIQDTAFVNVAGKSFELPKTLVRFSDLVGSWRSYGGKVFSAQIDLGEDARVSLMYIGENVQIPQHTHRGLESTLVLHGGFSDEDGQYEEGDLMVRDASVKHSPFTQEGEDCLCLTVLTEPMIFTQGVARIFNLFGKGLYP belongs to which category?
OUTPUT: group 2
